Each entry below carries its reported IC50.
# SUBJECT_OF_TEST: EGFR del19/C797S (Homo sapiens, UniProt P00533, C797S/DEL746-750)
# Sequence (P00533 with tags, fused parts or gaps DEL746-750/C797S): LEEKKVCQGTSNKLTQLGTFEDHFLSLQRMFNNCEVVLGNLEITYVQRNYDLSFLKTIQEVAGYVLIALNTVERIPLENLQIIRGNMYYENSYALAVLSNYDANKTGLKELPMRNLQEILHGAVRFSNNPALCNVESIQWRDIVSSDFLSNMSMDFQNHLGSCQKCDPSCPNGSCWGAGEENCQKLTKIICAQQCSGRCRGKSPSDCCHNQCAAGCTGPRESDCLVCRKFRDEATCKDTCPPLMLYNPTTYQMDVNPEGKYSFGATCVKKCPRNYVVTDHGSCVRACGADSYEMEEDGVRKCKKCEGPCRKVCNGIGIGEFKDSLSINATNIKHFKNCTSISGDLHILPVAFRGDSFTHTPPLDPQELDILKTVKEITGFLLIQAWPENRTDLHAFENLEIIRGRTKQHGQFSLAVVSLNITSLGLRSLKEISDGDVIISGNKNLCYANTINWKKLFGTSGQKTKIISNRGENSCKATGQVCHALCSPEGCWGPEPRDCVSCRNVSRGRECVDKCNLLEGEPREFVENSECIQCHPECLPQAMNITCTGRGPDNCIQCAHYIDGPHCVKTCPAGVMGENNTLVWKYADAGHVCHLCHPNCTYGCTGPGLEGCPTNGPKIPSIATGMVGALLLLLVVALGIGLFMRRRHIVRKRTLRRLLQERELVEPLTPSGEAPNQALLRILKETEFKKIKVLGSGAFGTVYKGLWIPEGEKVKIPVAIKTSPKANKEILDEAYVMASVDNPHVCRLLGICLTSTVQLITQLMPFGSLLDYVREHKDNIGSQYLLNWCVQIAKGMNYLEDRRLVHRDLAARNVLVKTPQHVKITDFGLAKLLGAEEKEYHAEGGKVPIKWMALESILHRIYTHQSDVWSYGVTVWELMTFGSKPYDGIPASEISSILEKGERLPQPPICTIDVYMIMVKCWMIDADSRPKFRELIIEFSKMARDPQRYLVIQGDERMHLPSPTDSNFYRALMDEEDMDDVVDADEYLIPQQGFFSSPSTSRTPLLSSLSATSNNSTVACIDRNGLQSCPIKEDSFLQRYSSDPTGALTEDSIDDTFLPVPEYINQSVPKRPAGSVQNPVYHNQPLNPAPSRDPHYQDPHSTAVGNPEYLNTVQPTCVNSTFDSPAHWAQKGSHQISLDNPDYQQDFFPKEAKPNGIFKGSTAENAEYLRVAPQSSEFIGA
# TEST_DETAILS: Biochemical EGFR kinase assay (Lance Ultra TR-FRET), double mutant del19/C797S
# RUN_CONDITIONS: Km ATP; read-out: IC50 del19/C797S (nM) Km ATP

MOL_SMILES	READOUT_UNIT	IC50
O=C1CC[C@]2(CC[C@H](Nc3cc(Nc4ccnc(-c5cnn(S(=O)(=O)C6CC6)c5)n4)ncc3-c3csc(C(F)(F)F)n3)CC2)N1	nM	1.3
Cn1nc(-c2cnc(Nc3ccnc(-c4cnn(S(=O)(=O)C5CC5)c4)n3)cc2N[C@H]2CC[C@@](C)(O)CC2)cc1C(C)(C)O	nM	0.8
Cc1nn(CC(F)F)c(C)c1-c1nccc(Nc2cc(N[C@H]3CC[C@@](C)(O)CC3)c(-c3ccn(C(F)F)n3)cn2)n1	nM	20.2
